Target: hCB2 (Homo sapiens)
Sequence (P34972 whole entry): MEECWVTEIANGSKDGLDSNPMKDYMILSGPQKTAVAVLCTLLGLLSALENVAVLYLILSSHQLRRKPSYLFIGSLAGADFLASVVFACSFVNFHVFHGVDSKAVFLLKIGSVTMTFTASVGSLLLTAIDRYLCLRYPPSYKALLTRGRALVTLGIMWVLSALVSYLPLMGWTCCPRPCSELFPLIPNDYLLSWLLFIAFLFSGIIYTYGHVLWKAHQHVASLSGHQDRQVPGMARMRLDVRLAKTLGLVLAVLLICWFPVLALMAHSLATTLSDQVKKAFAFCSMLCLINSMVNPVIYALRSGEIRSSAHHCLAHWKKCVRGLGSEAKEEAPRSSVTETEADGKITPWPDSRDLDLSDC
Test: TRUPATH BRET2 GoA dissociation, HEK293T
Format: cell-based
Set-up: expressed in transfected cells; host or cells: HEK293T cells (ATCC: CRL-3216), transient co-transfection
MEASURED QUANTITY: pEC50
Please keep in mind that pEC50 is minus log10 of the molar concentration; only the number is needed.

// lookup pEC50 for COC(=O)C(NC(=O)c1cc(C)n(-c2cccc(C(F)(F)F)c2)n1)c1cccs1 (centres unmarked)
6.23

Now the same for COC(=O)[C@@H]1[C@@H]2CCC[C@@H]2CN1C(=O)c1cc(C)n(-c2cccc(C(F)(F)F)c2)n1
7.01

###

Answer each item with its documented Emax.
Target: hCB1 (Homo sapiens)
Sequence (P21554 whole entry): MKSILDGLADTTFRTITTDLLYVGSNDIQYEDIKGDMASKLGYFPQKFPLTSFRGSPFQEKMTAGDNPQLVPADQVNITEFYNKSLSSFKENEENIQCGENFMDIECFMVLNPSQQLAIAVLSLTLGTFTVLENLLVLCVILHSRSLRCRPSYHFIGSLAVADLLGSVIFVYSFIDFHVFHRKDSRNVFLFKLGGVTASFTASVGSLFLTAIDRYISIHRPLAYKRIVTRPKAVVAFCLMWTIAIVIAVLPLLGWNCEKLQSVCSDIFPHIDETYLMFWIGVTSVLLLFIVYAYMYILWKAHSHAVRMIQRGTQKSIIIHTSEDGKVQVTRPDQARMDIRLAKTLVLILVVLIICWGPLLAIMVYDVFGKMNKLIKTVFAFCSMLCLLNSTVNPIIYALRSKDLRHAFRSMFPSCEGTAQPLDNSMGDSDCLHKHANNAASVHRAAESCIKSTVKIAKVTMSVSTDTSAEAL
Test: bioSensAll ebBRET signaling profiling, hCB1
Format: cell-based
Design: host or cells: HEK293SL cells, transient PEI transfection
Conditions: read-out: Emax [95% CI], hCB1 Gz; normalized to CP-55,940
Dear colleague, please return just the value in %, with no unit written.

# returns recorded Emax (system: hCB1 (Homo sapiens)) for COC(=O)C(C)(NC(=O)c1cc(C)n(-c2cccc(C(F)(F)F)c2)n1)c1cccs1 (stereo not drawn)
97

Also Cc1cc(C(=O)NC(c2ccccc2)c2ccco2)nn1-c1cccc(C(F)(F)F)c1 (stereo not drawn) ?
72

Please do the same for CC(=O)C(c1cccs1)N(C)C(=O)c1cc(C)n(-c2cccc(C(F)(F)F)c2)n1 (stereo not drawn) as well.
70

// same read-out, input: COC(=O)[C@](C)(NC(=O)c1cc(C)n(-c2cccc(C(F)(F)F)c2)n1)c1cccs1
98

Another compound to check: COC(=O)C(NC(=O)c1cc(C)n(-c2cccc(C(F)(F)F)c2)n1)c1cccs1 (stereo not drawn)
121

Now the same for COC(=O)C(NC(=O)c1cc(C)n(-c2cccc(F)c2)n1)c1cccs1 (stereo not drawn)
130

Can you handle COC(=O)[C@@](C)(NC(=O)c1cc(C)n(-c2cccc(C(F)(F)F)c2)n1)c1cccs1 next?
94

Same again, this time with Cc1cc(C(=O)NC(c2ccccc2)c2ccco2)nn1-c1cccc(C#N)c1 (stereo not drawn)
51

// next record Cc1cc(C(=O)NC(c2ccco2)c2ccco2)nn1-c1cccc(C(F)(F)F)c1
115

###

Molecular target: hCB1 (Homo sapiens)
Test: bioSensAll ebBRET signaling profiling, hCB1
Format: cell-based
Parameters: host or cells: HEK293SL cells, transient PEI transfection
Conditions: Log [Compound] (M) -12.3979; single replicate values, FigS6a
Record form. Attribute: Gi1 hCB1. Fill in for each entry.

# input molecule: Cc1cc(C(=O)NC(c2ccco2)c2ccco2)nn1-c1cccc(C(F)(F)F)c1 [‘1090] ; wanted: its Gi1 hCB1
3.666

Follow-up entry: Brc1cc2c(cc1Cc1noc(-c3cnn(CC4CC4)c3)n1)OCO2 [‘5424]
-2.024

Another: COC(=O)[C@@H]1[C@@H]2CC[C@@H]2CN1C(=O)c1cc(C)n(-c2cccc(C(F)(F)F)c2)n1 [‘6448]
1.723

And the next one, COc1cccc(C(NC(=O)c2cc(C)n(-c3cccc(C(F)(F)F)c3)n2)c2ccco2)c1 (stereo not shown) [‘1087] ?
2.386

Follow-up entry: COC(=O)[C@@H]1[C@@H]2CCC[C@@H]2CN1C(=O)c1cc(C)n(-c2cccc(C(F)(F)F)c2)n1 [‘6439]
0.9369

Moving on to the next molecule: COC(=O)C(NC(=O)c1cc(C)n(-c2cccc(C(F)(F)F)c2)n1)c1cccs1 (stereo not shown) [‘60154]
0.3049

Moving on to the next molecule: Cc1cc(C(=O)N2CC3(CCC3)[C@H]2[C@@H]2CCCO2)nn1-c1cccc(C(F)(F)F)c1 [‘5490]
2.124

Next: Cc1cc(C(=O)N2CC3(CCC3)[C@H]2[C@H]2CCCO2)nn1-c1cccc(C(F)(F)F)c1 [‘1651]
3.419

Would you mind doing Cc1nn(Cc2ccc(Cl)cc2)c(C)c1C(=O)OCC1CSc2ccccc2O1 (stereo not shown) [‘5463] as well?
-0.25

What do you get for COC(=O)C(NC(=O)c1cc(C)n(-c2cccc(F)c2)n1)c1cccs1 (stereo not shown) [‘51486] ?
-0.06514

Next molecule: Cc1cc(C(=O)N(C)C(c2ccccc2)c2ccco2)nn1-c1cccc(C(F)(F)F)c1 (stereo not shown) [‘1082]
0.1044

Another molecule: Cc1cc(C(=O)NC(c2ccccc2)c2ccco2)nn1-c1cccc(C#N)c1 (stereo not shown) [‘12565]
0.4282

Same question, Cc1cc(C(=O)N2CC3(CCC3)[C@@H]2[C@H]2CCCO2)nn1-c1cccc(C(F)(F)F)c1 (single isomer, unassigned) [compound 430] this time
0.7674

Entry Cc1cc(C(=O)NC(c2ccccc2)c2ccco2)nn1-c1cccc(C(F)(F)F)c1 (stereo not shown) [‘1081] please
0.3511

Ok, now Cn1nc(-c2nnc(C(C)(C)Oc3ccc(C(F)(F)F)cc3)o2)c2ccccc2c1=O [‘2153]
-4.415

How about Cc1c(C(=O)OCC2CSc3ccccc3O2)cnn1Cc1ccccc1 (stereo not shown) [‘7800] ?
-3.75

Field entry: Cc1nc(CC2CC2)oc1-c1nc(Cc2cc3c(cc2Br)OCO3)no1 [‘7019]
1.698

Now the same for COC(=O)[C@@H]1[C@@H]2CCC[C@@H]2CN1C(=O)c1cc(C)n(-c2cccc(Cl)c2)n1 (racemic) [‘10010]
1.908

Now consider Cc1cc(C(=O)N(C)C(c2ccco2)c2ccco2)nn1-c1cccc(C(F)(F)F)c1 [‘4388] .
1.137

Now consider Cc1cc(C(=O)N2CC3(CCC3)[C@@H]2[C@@H]2CCCO2)nn1-c1cccc(C(F)(F)F)c1 [‘3386] and answer again.
0.5053

Now consider CC(=O)C(c1cccs1)N(C)C(=O)c1cc(C)n(-c2cccc(C(F)(F)F)c2)n1 (stereo not shown) [‘6829] .
4.159

Now consider Cn1nc(-c2nnc(C(C)(C)Oc3ccc(Cl)cc3)o2)c2ccccc2c1=O [‘0450] .
-5.935

Attribution: paper PMC11882969
